B1: glmS ribozyme (parent)
chain: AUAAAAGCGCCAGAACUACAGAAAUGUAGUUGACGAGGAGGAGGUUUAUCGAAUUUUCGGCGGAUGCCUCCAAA

Variants of: B1
Assay: self-cleavage kobs at 2500 uM GlcN6P; higher = faster cleavage; RNA array
Conditions: with glucosamine-6-phosphate
This sample holds only a part of the variants without activity.
Endpoint name: self-cleavage kobs at 2500 uM GlcN6P

Known self-cleavage kobs at 2500 uM GlcN6P results, listed for orientation:
{"columns": ["Item sequence", "self-cleavage kobs at 2500 uM GlcN6P"],
 "data": [
  ["AUAAAACCGCCAGAACUACAGAAAUGUAGUUGACGAGGAGGAGGUUUAUCGAAUUAUCGGCGGAUGCCUCCAAA [G7C U56A]", "< 1e-05 s⁻¹"],
  ["AUAAAAGCGCCAGAACUACAGAAAUGUAGUUGACGAGAUGGAGGUUUAUCGAAUUUUCGGCGGCUGCCUCCAAA [G38A A39U A64C]", "< 1e-05 s⁻¹"],
  ["AUAAAAGCCCCAUAACUACAGAAAUGUAGUUGACGAGGAGGAGGUUUAUCGAAUUUUCGGCGGAUGCCUCCAAA [G9C G13U]", "< 1e-05 s⁻¹"]
]}

Problem: Return self-cleavage kobs at 2500 uM GlcN6P (reported value) for this variant: AUAAAAGCGCCAGAAAUACAGAAAUGUAGUUGACCAGGAGGAGGUUUAUCGAAUUUUCGGCGGAUGCCUCCAAA [C16A G35C]
Solution: < 1e-05 s⁻¹

Problem: Return self-cleavage kobs at 2500 uM GlcN6P (reported value) for this variant: AUAAAAGCGCCUGAACUACAGAAAUGUAGUUGACGAGGAAGAGGUUUAUCGACUUUUCGGCGGAUGCCUCCAAA [A12U G40A A53C]
Solution: 0.00179 s⁻¹

Problem: Return self-cleavage kobs at 2500 uM GlcN6P (reported value) for this variant: AUAAAAGCGCCAGAACUACAGAAAUGUAGUUGACGAGGAGGAGGUUUAUCGAAUUUUAGGCGGAUGCCUACAAA [C58A C70A]
Solution: 6.58e-05 s⁻¹
